Examples of compounds with documented IC50 follow.
SYSTEM_UNDER_TEST: UniProt:P36897
METHOD: Inhibition of TGFbeta R1 induced transcriptional activation of p3TP-Lux in mink Mv1Lu lung cells
Format: functional, cell-based, Mustela
The answer is to be given in nM; state only the numeric part.

SUBSTANCE_SMILES	MEASURE_NAME	SCALE_UNIT	OBSERVED_VALUE
Cc1cccc(-c2nn3c(c2-c2ccc4ncn(CCCN5CCCCC5)c4c2)CCC3)n1	IC50	nM	51
CCN(CC)CCCn1cnc2ccc(-c3c(-c4cccc(C)n4)nn4c3CCC4)cc21	IC50	nM	100
Cc1cccc(-c2nn3c(c2-c2ccc4ncn(CCCN(C)C)c4c2)CCC3)n1	IC50	nM	53

The recorded IC50 for entry c1ccc(-c2nn3c(c2-c2ccc4ncn(CCCN5CCCC5)c4c2)CCC3)nc1 equals 226

###

SYSTEM_UNDER_TEST: TGF-beta receptor type-1 (Homo sapiens)
METHOD: Inhibition of recombinant human TGFbeta R1 expressed in Sf9 cells
Each entry below carries its reported pIC50.
The quantity pIC50 is defined as the negative base-10 logarithm of the molar concentration.

As a guide, the following entries are already answered.
COMPOUND	pIC50
CN(C)CCCn1cnc2ccc(-c3c(-c4ccccn4)nn4c3CCC4)cc21	6.40
Cn1ccc2cc(-c3c(-c4ccccn4)nn4c3CCC4)ccc21	4.91
Cn1cnc2ccc(-c3c(-c4ccccn4)nn4c3CCC4)cc21	7.12
Cc1cccc(-c2nn3c(c2-c2ccc4ncn(CCCN5CCOCC5)c4c2)CCC3)n1	7.16
Cc1cccc(-c2nn3c(c2-c2ccc4c(ccn4C)c2)CCC3)n1	5.39

Field pIC50 (system: TGF-beta receptor type-1 (Homo sapiens)) for entry Cc1cccc(-c2nn3c(c2-c2ccc4ncn(CCCN(C)C)c4c2)CCC3)n1 = 7.07

// pIC50 (TGF-beta receptor type-1 (Homo sapiens)) for c1ccc(-c2nn3c(c2-c2ccc4c(c2)ncn4CCCOC2CCCCO2)CCC3)nc1 (stereo not drawn) = 5.18

TGF-beta receptor type-1 (Homo sapiens) pIC50 of Cc1cccc(-c2nn3c(c2-c2ccc4ncn(CCCN5CCCCC5)c4c2)CCC3)n1 is 6.81

Tested system TGF-beta receptor type-1 (Homo sapiens); pIC50 recorded for CCN(CC)CCCn1cnc2ccc(-c3c(-c4cccc(C)n4)nn4c3CCC4)cc21 was 6.91

Here Cc1cccc(-c2nn3c(c2-c2ccc4ncn(C)c4c2)CCC3)n1 was tested on TGF-beta receptor type-1 (Homo sapiens), and its pIC50 came to 7.66

Lab entry: TGF-beta receptor type-1 (Homo sapiens) assay, compound Cc1cccc(-c2nn3c(c2-c2ccc4c(c2)ncn4CCCOC2CCCCO2)CCC3)n1 (stereo not drawn) , pIC50 = 5.74

So the reported pIC50 for Cc1cccc(-c2nn3c(c2-c2ccc4ncn(CCCO)c4c2)CCC3)n1 , on TGF-beta receptor type-1 (Homo sapiens), turned out to be 7.39

###

SYSTEM_UNDER_TEST: TGF-beta receptor type-1 (Homo sapiens, UniProt P36897)
Sequence (P36897 whole entry): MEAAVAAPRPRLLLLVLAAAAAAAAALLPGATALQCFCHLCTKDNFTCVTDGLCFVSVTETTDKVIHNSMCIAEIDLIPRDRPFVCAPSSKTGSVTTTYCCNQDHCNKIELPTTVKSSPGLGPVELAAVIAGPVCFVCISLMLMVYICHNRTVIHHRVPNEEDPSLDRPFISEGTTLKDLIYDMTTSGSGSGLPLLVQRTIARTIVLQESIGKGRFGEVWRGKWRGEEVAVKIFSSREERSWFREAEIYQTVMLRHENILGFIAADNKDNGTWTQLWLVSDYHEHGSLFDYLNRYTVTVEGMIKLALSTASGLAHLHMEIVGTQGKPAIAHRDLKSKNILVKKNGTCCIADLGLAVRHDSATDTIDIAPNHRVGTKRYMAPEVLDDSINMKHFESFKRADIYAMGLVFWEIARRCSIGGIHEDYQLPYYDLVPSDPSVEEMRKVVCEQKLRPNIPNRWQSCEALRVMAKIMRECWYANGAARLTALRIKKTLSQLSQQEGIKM
METHOD: Inhibition of TGFbeta R1 induced transcriptional activation of p3TP-Lux in mink Mv1Lu lung cells
Assay type: functional, cell-based, Mustela
Collected IC50 values appear next to each entry.
Field: numeric (nM). Do not append units.

MOLECULE	SYSTEM_UNDER_TEST	OBSERVED_VALUE
Cn1cnc2cc(-c3c(-c4ccccn4)nn4c3CCC4)ccc21	TGF-beta receptor type-1 (Homo sapiens, UniProt P36897)	1370
Cc1cccc(-c2nn3c(c2-c2ccc4c(c2)ncn4CCCOC2CCCCO2)CCC3)n1 (stereo unspecified)	TGF-beta receptor type-1 (Homo sapiens, UniProt P36897)	2430
Cc1cccc(-c2nn3c(c2-c2ccc4ncn(CCCO)c4c2)CCC3)n1	TGF-beta receptor type-1 (Homo sapiens, UniProt P36897)	78
Cc1cccc(-c2nn3c(c2-c2ccc4ncn(C)c4c2)CCC3)n1	TGF-beta receptor type-1 (Homo sapiens, UniProt P36897)	29
Cn1cnc2ccc(-c3c(-c4ccccn4)nn4c3CCC4)cc21	TGF-beta receptor type-1 (Homo sapiens, UniProt P36897)	8

Pending molecule:
Lookup result for Cc1cccc(-c2nn3c(c2-c2ccc4ncn(CCCN5CCCC5)c4c2)CCC3)n1 ; measured IC50: 117

###

SYSTEM_UNDER_TEST: Cytochrome P450 2D6 (Homo sapiens)
Sequence (P10635 whole entry): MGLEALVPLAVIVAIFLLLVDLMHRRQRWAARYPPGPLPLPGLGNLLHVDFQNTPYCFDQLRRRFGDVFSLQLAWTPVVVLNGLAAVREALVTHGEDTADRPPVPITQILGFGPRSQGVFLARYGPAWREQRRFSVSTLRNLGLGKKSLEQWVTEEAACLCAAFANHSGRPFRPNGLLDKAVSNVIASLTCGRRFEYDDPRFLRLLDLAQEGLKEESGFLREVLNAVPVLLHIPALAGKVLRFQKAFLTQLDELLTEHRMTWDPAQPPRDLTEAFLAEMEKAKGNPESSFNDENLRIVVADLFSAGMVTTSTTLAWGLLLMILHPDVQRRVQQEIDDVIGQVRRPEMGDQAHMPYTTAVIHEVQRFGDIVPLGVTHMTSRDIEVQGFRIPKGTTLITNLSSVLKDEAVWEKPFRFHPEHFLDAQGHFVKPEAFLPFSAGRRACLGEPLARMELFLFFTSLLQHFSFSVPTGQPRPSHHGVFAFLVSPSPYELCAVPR
MEASURE_NAME: pIC50
In textbook form, pIC50 equals minus log to base ten of the concentration in mol/L.

Form field, pIC50 with Cytochrome P450 2D6 (Homo sapiens), item Cc1cccc(-c2nn3c(c2-c2ccc4nc[nH]c4c2)CCC3)n1 : 4.57

###

Below: a set of entries, each annotated with reported IC50.
SYSTEM_UNDER_TEST: Mitogen-activated protein kinase kinase kinase 20 (Homo sapiens, UniProt Q9NYL2)
Sequence (Q9NYL2 whole entry): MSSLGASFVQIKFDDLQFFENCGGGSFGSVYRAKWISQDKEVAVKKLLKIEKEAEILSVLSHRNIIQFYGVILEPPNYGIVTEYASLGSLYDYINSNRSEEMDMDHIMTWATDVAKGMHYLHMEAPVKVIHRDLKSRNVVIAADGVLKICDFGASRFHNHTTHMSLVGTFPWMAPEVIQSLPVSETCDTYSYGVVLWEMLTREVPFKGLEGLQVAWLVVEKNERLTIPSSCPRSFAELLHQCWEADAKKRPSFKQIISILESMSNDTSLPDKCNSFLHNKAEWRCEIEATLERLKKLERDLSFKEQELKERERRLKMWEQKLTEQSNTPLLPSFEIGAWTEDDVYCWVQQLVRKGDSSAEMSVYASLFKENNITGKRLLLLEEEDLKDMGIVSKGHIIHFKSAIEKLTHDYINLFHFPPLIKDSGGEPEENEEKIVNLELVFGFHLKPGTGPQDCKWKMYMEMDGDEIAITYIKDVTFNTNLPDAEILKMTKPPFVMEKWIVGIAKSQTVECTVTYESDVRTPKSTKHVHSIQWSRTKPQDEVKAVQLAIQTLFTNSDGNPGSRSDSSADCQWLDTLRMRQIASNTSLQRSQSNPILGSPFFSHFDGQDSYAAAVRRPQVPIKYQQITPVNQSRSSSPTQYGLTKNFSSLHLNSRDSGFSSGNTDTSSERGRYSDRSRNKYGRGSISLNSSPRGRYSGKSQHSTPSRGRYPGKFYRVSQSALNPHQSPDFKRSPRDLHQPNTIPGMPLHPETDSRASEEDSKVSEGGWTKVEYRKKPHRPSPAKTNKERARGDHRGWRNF
METHOD: Inhibition of MLK7
Give the quantity in µM, number only.

Would you please look over these solved cases?
SUBSTANCE_SMILES	IC50, µM
Cc1cccc(-c2nn3c(c2-c2ccc4ncn(CCCO)c4c2)CCC3)n1	2.81
c1ccc(-c2nn3c(c2-c2ccc4ncn(CCCN5CCCC5)c4c2)CCC3)nc1	4.88
Cc1cccc(-c2nn3c(c2-c2ccc4nc[nH]c4c2)CCC3)n1	15.9
CN(C)CCCn1cnc2ccc(-c3c(-c4ccccn4)nn4c3CCC4)cc21	15.9
Cc1cccc(-c2nn3c(c2-c2ccc4ncn(CCCN5CCOCC5)c4c2)CCC3)n1	8.48

Per the records, this compound ( Cn1ccc2cc(-c3c(-c4ccccn4)nn4c3CCC4)ccc21 ) has IC50 equal to 16.6

###

METHOD: Inhibitory activity against TGF-beta-stimulated proliferation in NIH3T3 cells
Format: functional, cell-based
CONDITION_INFO: Mus musculus
Examples of compounds with documented pIC50 follow.
Reminder that pIC50 means the negative base-10 logarithm of the concentration expressed in mol/L.

See these solved cases before continuing.
COMPOUND	MEASURE_NAME	OBSERVED_VALUE
Cc1cccc(-c2nn3c(c2-c2ccc4ncn(CCCO)c4c2)CCC3)n1	pIC50	6.43
Cc1cccc(-c2nn3c(c2-c2ccc4ncn(C)c4c2)CCC3)n1	pIC50	7.02
Cc1cccc(-c2nn3c(c2-c2ccc4ncn(CCCN(C)C)c4c2)CCC3)n1	pIC50	6.86
CCN(CC)CCCn1cnc2ccc(-c3c(-c4cccc(C)n4)nn4c3CCC4)cc21	pIC50	6.56
Cn1cnc2cc(-c3c(-c4ccccn4)nn4c3CCC4)ccc21	pIC50	5.79

Record summary for Cc1cccc(-c2nn3c(c2-c2ccc4ncn(CCCN5CCCC5)c4c2)CCC3)n1 : reported pIC50 = 6.60

Cc1cccc(-c2nn3c(c2-c2ccc4ncn(CCCN5CCCCC5)c4c2)CCC3)n1 has a reported pIC50 of 6.82

pIC50 reported for this compound Cn1cnc2ccc(-c3c(-c4ccccn4)nn4c3CCC4)cc21 : 7.49

Noted for CN(C)CCCn1cnc2ccc(-c3c(-c4ccccn4)nn4c3CCC4)cc21 : its pIC50 reads 6.00

Lab note: c1ccc(-c2n[nH]cc2-c2ccnc3ccccc23)nc1 gave pIC50 of 7.09

###

SYSTEM_UNDER_TEST: UniProtKB P36897
Sequence (P36897 whole entry): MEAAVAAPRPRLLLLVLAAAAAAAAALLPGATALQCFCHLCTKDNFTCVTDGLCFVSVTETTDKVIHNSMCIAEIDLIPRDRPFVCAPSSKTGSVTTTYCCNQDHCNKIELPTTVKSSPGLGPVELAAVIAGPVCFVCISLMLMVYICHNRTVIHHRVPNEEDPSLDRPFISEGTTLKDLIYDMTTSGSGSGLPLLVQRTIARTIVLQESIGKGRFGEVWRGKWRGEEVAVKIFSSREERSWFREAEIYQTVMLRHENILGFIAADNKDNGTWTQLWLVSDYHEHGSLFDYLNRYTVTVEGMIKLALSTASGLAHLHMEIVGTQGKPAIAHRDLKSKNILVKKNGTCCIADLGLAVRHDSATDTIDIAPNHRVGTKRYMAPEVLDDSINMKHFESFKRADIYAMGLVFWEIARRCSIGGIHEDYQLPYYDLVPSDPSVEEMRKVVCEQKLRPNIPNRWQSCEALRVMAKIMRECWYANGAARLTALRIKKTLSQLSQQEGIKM
METHOD: Inhibition of TGFbeta R1 induced transcriptional activation of p3TP-Lux in mink Mv1Lu lung cells
Format: functional, cell-based, Mustela
Rule: IC50 below 100 nM gives YES, anything at or above gives NO.

Ask: Dear reviewer, please state whether Cc1cccc(-c2nn3c(c2-c2ccc4ncn(CCCN5CCOCC5)c4c2)CCC3)n1 has IC50 strictly beneath 100 nM.
Reply: NO

Ask: State whether 100 nM exceeds IC50 recorded for CN(C)CCCn1cnc2ccc(-c3c(-c4ccccn4)nn4c3CCC4)cc21 .
Reply: NO

Ask: Quick check: does OCCCn1cnc2ccc(-c3c(-c4ccccn4)nn4c3CCC4)cc21 have IC50 under 100 nM?
Reply: YES

Ask: IC50 under 100 nM? Item: c1ccc(-c2nn3c(c2-c2ccc4c(c2)ncn4CCCOC2CCCCO2)CCC3)nc1 (stereo not given)
Reply: NO

Ask: For this compound, is IC50 lower than 100 nM? Cc1cccc(-c2nn3c(c2-c2ccc4nc[nH]c4c2)CCC3)n1
Reply: YES
